Below, each entry is listed with its recorded protein stability index.
B1: VENTX (parent)
chain: VFQHHQYLSPLERKRLAREMQLSE

variants of: B1; assay: protein stability index of a GFP-peptide fusion (GPS, HEK-293T) (PSI 1-6); higher = more stable; details: c terminus: a fixed tail appended;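 also: lentivirally expressed fusions sorted by FACS into six bins by GFP to DsRed ratio, PSI derived from sequencing read proportions per bin multiplied by bin number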
Quick one: just the number, no unit, thanks!

Before answering, review these 6 worked examples.
MUTATION_KEY | protein stability index
R13F | 1.92
Q21Y | 3.06
R15A | 1.79
E24L | 2.07
P10G | 2.23
A17Q | 2.59

Query variant follows.
What value of protein stability index has been reported for the following variant? F2T
3.05
